species: Homo sapiens; assay: Selectivity ratio of Ki for displacement of [3H]propionyl-pNPY from human Y2 receptor expressed in CHO cells to Ki for displacement of [3H]UR-KK200 from human Y4 receptor expressed in CHO cells co-expressing Gqi5-mtAEQ; format: cell-based
Value Type: Ratio Ki

// below: answered molecules
>  <Smiles Text>
CC(=O)N[C@@H](CCCNC(=N)N)C(=O)N[C@@H](Cc1ccc(O)cc1)C(=O)N[C@@H](CCCNC(=N)N)C(=O)N[C@@H](CC(C)C)C(=O)N[C@@H](CCCNC(=N)N)C(=O)N[C@@H](Cc1ccc(O)cc1)C(N)=O

>  <Measured Result>
> 830

$$$$
>  <Smiles Text>
CC(C)C[C@H](NC(=O)[C@H](CCCNC(=N)N)NC(=O)[C@H](Cc1ccc(O)cc1)NC(=O)[C@H](CCCNC(=N)N)NC(=O)CCC(=O)O)C(=O)N[C@@H](CCCNC(=N)N)C(=O)N[C@@H](Cc1ccc(O)cc1)C(N)=O

>  <Measured Result>
> 750

$$$$
>  <Smiles Text>
CC(C)C[C@H](NC(=O)[C@@H](N)CCCNC(=N)N)C(=O)N[C@@H](CCCNC(=N)N)C(=O)N[C@@H](Cc1ccc(O)cc1)C(N)=O

>  <Measured Result>
> 2900

$$$$
>  <Smiles Text>
CN[C@@H](CCCNC(=N)N)C(=O)N[C@@H](CC(C)C)C(=O)N[C@@H](CCCNC(=N)N)C(=O)N[C@@H](Cc1ccc(O)cc1)C(N)=O

>  <Measured Result>
> 260

$$$$

Entry CC(C)C[C@H](NC(=O)[C@H](CCCNC(=N)N)NC(=O)[C@H](Cc1ccc(O)cc1)NC(=O)[C@@H](N)CCCNC(=N)N)C(=O)N[C@@H](CCCNC(=N)N)C(=O)N[C@@H](Cc1ccc(O)cc1)C(N)=O : reported Ratio Ki = ?
> 5000

* * *

target: Neuropeptide Y receptor type 4 (Homo sapiens, UniProt P50391); experiment: Agonist activity at human Y4 receptor expressed in CHO cells co-expressing Gqi5-mtAEQ assessed as intracellular calcium mobilization measured for 43 secs in presence of coelenterazine by aequorin-reporter gene based luminescence assay; format: functional, cell-based; settings: read-out: EC50
Sequence (P50391 whole entry): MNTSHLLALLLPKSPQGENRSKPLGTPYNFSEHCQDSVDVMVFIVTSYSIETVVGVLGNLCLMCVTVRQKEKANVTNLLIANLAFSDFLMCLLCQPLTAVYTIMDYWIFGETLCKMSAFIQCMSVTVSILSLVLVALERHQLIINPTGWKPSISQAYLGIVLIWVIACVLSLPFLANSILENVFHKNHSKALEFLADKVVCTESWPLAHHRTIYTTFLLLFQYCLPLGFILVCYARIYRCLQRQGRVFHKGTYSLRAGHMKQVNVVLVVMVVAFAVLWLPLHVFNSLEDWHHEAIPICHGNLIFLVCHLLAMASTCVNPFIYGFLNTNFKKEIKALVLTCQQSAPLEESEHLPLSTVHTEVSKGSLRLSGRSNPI
Square brackets hold non-standard residues; d marks the D form. Peptide text beside a SMILES is read from it. ξ: configuration not given here. ξOrn = NCCCC(N)C(=O)O
Value Type: EC50 (nM)
Quick reminder: number only, in nM, skip the unit.

// below: answered compounds
>  <Compound>
CC(=O)N[C@@H](CCCNC(=N)N)C(=O)N[C@@H](Cc1ccc(O)cc1)C(=O)N[C@@H](CCCNC(=N)N)C(=O)N[C@@H](CC(C)C)C(=O)N[C@@H](CCCNC(=N)N)C(=O)N[C@@H](Cc1ccc(O)cc1)C(N)=O

>  <Measured Result>
190

$$$$
>  <Compound>
CC(C)C[C@H](NC(=O)[C@H](CCCNC(=N)N)NC(=O)[C@H](Cc1ccc(O)cc1)NC(=O)[C@@H](N)CCCNC(=N)N)C(=O)N[C@@H](CCCNC(=N)N)C(=O)N[C@@H](Cc1ccc(O)cc1)C(N)=O

>  <Measured Result>
100

$$$$
>  <Compound>
CC(=O)N[C@@H](CCCNC(=N)N)C(=O)N[C@@H](Cc1c[nH]c2ccccc12)C(=O)N[C@@H](CCCNC(=N)N)C(=O)N[C@@H](CC(C)C)C(=O)N[C@@H](CCCNC(=N)N)C(=O)N[C@@H](Cc1ccc(O)cc1)C(N)=O

>  <Measured Result>
120

$$$$
>  <Compound>
CC(=O)N[C@@H](CCCNC(=N)N)C(=O)NC(CCCN)C(=O)NCC(=O)N[C@@H](Cc1c[nH]c2ccccc12)C(=O)N[C@@H](CCCNC(=N)N)C(=O)N[C@@H](CC(C)C)C(=O)N[C@@H](CCCNC(=N)N)C(=O)N[C@@H](Cc1ccc(O)cc1)C(N)=O (stereo partly drawn) (Ac-R[ξOrn]GWRLRY-NH2)

>  <Measured Result>
230

$$$$
>  <Compound>
CC(C)C[C@H](NC(=O)[C@@H](N)CCCNC(=N)N)C(=O)N[C@@H](CCCNC(=N)N)C(=O)N[C@@H](Cc1ccc(O)cc1)C(N)=O

>  <Measured Result>
440

$$$$

Entry CC(C)C[C@H](NC(=O)[C@H](CCCNC(=N)N)NC(=O)[C@H](Cc1ccc(O)cc1)NC(=O)[C@H](CCCNC(=N)N)NC(=O)CCC(=O)O)C(=O)N[C@@H](CCCNC(=N)N)C(=O)N[C@@H](Cc1ccc(O)cc1)C(N)=O : reported EC50 = ?
620

Where these numbers come from: ChEMBL document CHEMBL4619778
